ASSAYED TARGET: T1, Recombinant MBP-mutCALR Type 1 fusion protein (human)
T1 construct: custom made at Cepter; also called recombinant mutCALR protein
PROCEDURE TEXT: SPR, IgG captured, 1:1 fit, Exp. 1
Listing of recorded pKd by entry.
# pKd = -log10(concentration in molar units)

Given anti-mutCALR antibody clone 45 (antibody, human IgG1, lambda, V domains shown, human IgG1) VH: EVQLVQSGAEVKKPGSSVKVSCKASGGTFSSYAISWVRQAPGQGLEWMGGIIPIFGTANYAQKFQGRVTITADESTSTAYMELSSLRSEDTAVYYCASSPLRGSGWYWHYYYGMDVWGQGTTVTVSS VL: SYVLTQPLSVSVAPGQTARITCGGNNIGRKSVHWYQQKPGQAPVLVIYRDSNRPSGIPERFSGSNSGNTATLTISRAQAGDEADYYCQVWDSSTVVFGGGTKLTVLG , respond with its pKd.
8.29

Given anti-mutCALR antibody clone 1 (antibody, human IgG1, lambda, V domains shown, human IgG1) VH: EVQLVQSGAEVKKPGASVKVSCKVSGYTLTELSMQWVRQAPGKGLEWMGGFDPDDGETMYAEKFQGRLTVTEDTSTDTVYMELRSLTSEDTALYFCATSPGYDFFDYWGQGTLVTVSS VL: SYVLTQPPSVSVAPGKTARITCGGNYIGSKSVHWYQQKPGQAPVLVVYDDGDRPSGIPARFSGSNSGNTATLTISRVEAGDEADYYCQVWDSISDHVVFGGGTKLTVLG , respond with its pKd.
7.85

Given anti-mutCALR antibody clone 9 (antibody, human IgG1, lambda, V domains shown, human IgG1) VH: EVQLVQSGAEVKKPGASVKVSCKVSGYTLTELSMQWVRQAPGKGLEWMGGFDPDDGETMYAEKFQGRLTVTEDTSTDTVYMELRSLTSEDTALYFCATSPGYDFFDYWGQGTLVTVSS VL: SYVLTQPPSVSVAPGQTARIPCGGNNIGSKSVHWYQQKPGQAPVLVVYDDRDRPSGIPERFSGSNSGNTATLTINRVEAGDEADYYCQVWDSSNDLLIFGGGTKLTVLG , respond with its pKd.
8.52

Given anti-mutCALR antibody clone 12 (antibody, human IgG1, lambda, V domains shown, human IgG1) VH: EVQLVQSGAEVKKPGASVKVSCKVSGYTLTELSMQWVRQAPGKGLEWMGGFDPDGGETMYAEKFQGRLTVTEDTSTDTVYMELRSLTSEDTALYFCATSPGYDFFDYWGQGTLVTVSS VL: SYVLTQPPSVSVAPGQTARVSCGGNNIGSKSVNWYRQKPGQAPVLVIYDDSDRPSGIPERFSGSNSGNTATLTINRVEAGDEADYYCQVWDSSNDLLIFGGGTKLTVLG , respond with its pKd.
8.39

Continuing:
Given anti-mutCALR antibody clone 11 (antibody, human IgG1, lambda, V domains shown, human IgG1) VH: EVRLVQSGAEVKKPGASVKVSCKVSGYTLTELSMQWVRQAPGKGLEWMGGFDPDDGETMYAEKFQGRLTVTEDTSTDTVYMELRSLTSEDTALYFCATSPGYDFFDYWGQGTLVTVSS VL: QSALTQPRSVSGSPGQSVTISCTGTSSDVGGYNYVSWYQQHPGKAPKLMIYDVSKRPSGVPDRFSGSNSGNTATLTINRVEAGDEADYYCQVWDSSNDLLIFGGGTKLTVLG , respond with its pKd.
7.99
